Source of measurements: patent US9428496B2

reported endpoint: melting point

Solved entries (count: 3):
- input smiles: "CC(C)c1ccc(OCCCCCCN2CCN(c3nccs3)CC2)cc1.Cl"
  melting point: "135 to 137 °C"
- input smiles: "CCOc1ccc(OCCCCCCN2CCN(c3nccs3)CC2)cc1.Cl"
  melting point: "222 to 224 °C"
- input smiles: "Cc1ccc(OCCCCCCN2CCN(c3nccs3)CC2)cc1"
  melting point: "37 to 39 °C"

Batch: melting point for all items listed.
1. Fc1ccc(OCCCCCCN2CCN(c3nccs3)CC2)cc1
2. Brc1ccc(OCCCCCN2CCN(c3nccs3)CC2)cc1.Cl
3. Brc1ccc(OCCCCCN2CCN(c3nccs3)CC2)cc1
4. CC(C)(C)c1ccc(OCCCCCN2CCN(c3nccs3)CC2)cc1
5. Brc1ccc(OCCCCCCN2CCN(c3nccs3)CC2)cc1
6. Cc1ccc(OCCCCCN2CCN(c3nccs3)CC2)cc1
7. CC(C)(C)c1ccc(OCCCCCCN2CCN(c3nccs3)CC2)cc1

1: 58 to 60 °C; 2: 221 to 223 °C; 3: 73 to 75 °C; 4: 125 to 127 °C; 5: 66 to 68 °C; 6: 125 to 127 °C; 7: 30 to 32 °C

====

For each of the molecules below, state its melting point.

Solved entries (count: 8):
- input smiles: "CC(C)c1ccc(OCCCCCN2CCN(c3nccs3)CC2)cc1"
  reported endpoint: "melting point"
  result: "128 to 130 °C"
- input smiles: "COc1ccc(OCCCCCCN2CCN(c3nccs3)CC2)cc1.Cl"
  reported endpoint: "melting point"
  result: "221 to 223 °C"
- input smiles: "Cl.c1ccc(OCCCCCN2CCN(c3nccs3)CC2)cc1"
  reported endpoint: "melting point"
  result: "145 to 147 °C"
- input smiles: "CCc1ccc(OCCCCCN2CCN(c3nccs3)CC2)cc1"
  reported endpoint: "melting point"
  result: "125 to 127 °C"
- input smiles: "COc1ccc(OCCCCCN2CCN(c3nccs3)CC2)cc1"
  reported endpoint: "melting point"
  result: "83 to 85 °C"
- input smiles: "CCc1ccc(OCCCCCCN2CCN(c3nccs3)CC2)cc1"
  reported endpoint: "melting point"
  result: "21 to 23 °C"
- input smiles: "Fc1ccc(OCCCCCN2CCN(c3nccs3)CC2)cc1"
  reported endpoint: "melting point"
  result: "42 to 44 °C"
- input smiles: "CCOc1ccc(OCCCCCN2CCN(c3nccs3)CC2)cc1"
  reported endpoint: "melting point"
  result: "79 to 81 °C"

Hello, please tell me recorded melting point for this one: c1ccc(OCCCCCCN2CCN(c3nccs3)CC2)cc1
37 to 39 °C

====

Tested on: enterovirus Cox A16
Assay: microbe, parasite or virus in culture
Format: cell-based
Details: Enterovirus; CPE in Vero cells, Reed-Muench method; read-out: CoxA16 IC50
Method: Anti-picornaviral activity of the compounds of the present invention in in vitro model Test item: activity screening of compounds against enteroviruses EV71 and Cox A16 Test principle: using Vero cells as virus host, the cytopathic effect of Vero cells induced by the inhibition of compounds against enteroviruses EV71 and Cox A16 was measured. 1. Virus strains: enteroviruses EV71 (Shenzhen 98) and Cox A16, passaging in the laboratory. […]
reported endpoint: IC50 (µg/mL)
Answers are plain numbers, in µg/mL.

Solved entries (count: 3):
- input smiles: "CCc1ccc(OCCCCCN2CCN(c3nccs3)CC2)cc1"
  readout number: 1.97
- input smiles: "CC(C)(C)c1ccc(OCCCCCN2CCN(c3nccs3)CC2)cc1"
  readout number: 1.57
- input smiles: "COc1ccc(OCCCCCN2CCN(c3nccs3)CC2)cc1"
  readout number: 25

Batch: IC50 for all items listed.
1. CCOc1ccc(OCCCCCCN2CCN(c3nccs3)CC2)cc1.Cl
2. c1ccc(OCCCCCCN2CCN(c3nccs3)CC2)cc1
3. CC(C)c1ccc(OCCCCCCN2CCN(c3nccs3)CC2)cc1.Cl
4. Cc1ccc(OCCCCCCN2CCN(c3nccs3)CC2)cc1

1. 3.13
2. 12.5
3. 0.57
4. 4.96

====

Test system: enterovirus Cox A16
Experiment: microbe, parasite or virus in culture
Type: cell-based
Conditions: SI, CoxA16, Vero cells
For each of the molecules below, state its CoxA16 SI.

Solved entries (count: 7):
- input smiles: "Cc1ccc(OCCCCCCN2CCN(c3nccs3)CC2)cc1"
  system: "enterovirus Cox A16"
  reported endpoint: "CoxA16 SI"
  result: 5.0
- input smiles: "CC(C)(C)c1ccc(OCCCCCCN2CCN(c3nccs3)CC2)cc1"
  system: "enterovirus Cox A16"
  reported endpoint: "CoxA16 SI"
  result: 2.0
- input smiles: "CCc1ccc(OCCCCCN2CCN(c3nccs3)CC2)cc1"
  system: "enterovirus Cox A16"
  reported endpoint: "CoxA16 SI"
  result: 6.3
- input smiles: "CCOc1ccc(OCCCCCN2CCN(c3nccs3)CC2)cc1"
  system: "enterovirus Cox A16"
  reported endpoint: "CoxA16 SI"
  result: 12.7
- input smiles: "CCOc1ccc(OCCCCCCN2CCN(c3nccs3)CC2)cc1.Cl"
  system: "enterovirus Cox A16"
  reported endpoint: "CoxA16 SI"
  result: 8.0
- input smiles: "CC(C)c1ccc(OCCCCCN2CCN(c3nccs3)CC2)cc1"
  system: "enterovirus Cox A16"
  reported endpoint: "CoxA16 SI"
  result: 4.0
- input smiles: "COc1ccc(OCCCCCN2CCN(c3nccs3)CC2)cc1"
  system: "enterovirus Cox A16"
  reported endpoint: "CoxA16 SI"
  result: 4.0

Hello, please tell me recorded CoxA16 SI for this one: CC(C)c1ccc(OCCCCCCN2CCN(c3nccs3)CC2)cc1.Cl
34.8

====

Test system: Vero cells
Assay: Toxicity of compounds to the Vero host cells (TC50, TC0)
Format: cell-based
Details: Vero cells
reported endpoint: TC50

- compound: "c1ccc(OCCCCCCN2CCN(c3nccs3)CC2)cc1 [Example 10]"
  system: "Vero cells"
  TC50: "25.0 µg/mL"

Batch: TC50 for all items listed.
1. CC(C)c1ccc(OCCCCCCN2CCN(c3nccs3)CC2)cc1.Cl [Example 23]
2. CCc1ccc(OCCCCCN2CCN(c3nccs3)CC2)cc1 [Example 4]
3. CCOc1ccc(OCCCCCCN2CCN(c3nccs3)CC2)cc1.Cl [Example 21]
4. COc1ccc(OCCCCCN2CCN(c3nccs3)CC2)cc1 [Example 1]

1: 19.84 µg/mL; 2: 12.5 µg/mL; 3: 25.0 µg/mL; 4: 100.0 µg/mL

====

Tested on: enterovirus Cox A16
Test: microbe, parasite or virus in culture
Format: cell-based
Conditions: Enterovirus; CPE in Vero cells, Reed-Muench method; read-out: CoxA16 IC50
reported endpoint: IC50

Solved entries (count: 5):
- input smiles: "CCc1ccc(OCCCCCCN2CCN(c3nccs3)CC2)cc1"
  result: "3.13 µg/mL"
- input smiles: "Brc1ccc(OCCCCCN2CCN(c3nccs3)CC2)cc1"
  result: "> 0.78 µg/mL"
- input smiles: "Brc1ccc(OCCCCCN2CCN(c3nccs3)CC2)cc1.Cl"
  result: "> 0.78 µg/mL"
- input smiles: "CC(C)(C)c1ccc(OCCCCCCN2CCN(c3nccs3)CC2)cc1"
  result: "3.13 µg/mL"
- input smiles: "Fc1ccc(OCCCCCCN2CCN(c3nccs3)CC2)cc1"
  result: "> 12.5 µg/mL"

Batch: IC50 for all items listed.
1. Brc1ccc(OCCCCCCN2CCN(c3nccs3)CC2)cc1
2. CCOc1ccc(OCCCCCN2CCN(c3nccs3)CC2)cc1

1: 6.25 µg/mL; 2: 1.97 µg/mL

Batch: IC50 for all items listed.
1. Fc1ccc(OCCCCCN2CCN(c3nccs3)CC2)cc1
2. Cl.c1ccc(OCCCCCN2CCN(c3nccs3)CC2)cc1
3. CC(C)c1ccc(OCCCCCN2CCN(c3nccs3)CC2)cc1

1. > 12.5 µg/mL
2. 12.5 µg/mL
3. 1.57 µg/mL

====

For each of the compounds below, state its TC0.
Tested on: Vero cells
Assay: Toxicity of compounds to the Vero host cells (TC50, TC0)
Format: cell-based
Details: Vero cells
Give bare numbers, in µg/mL.

Solved entries (count: 8):
- compound: "Cc1ccc(OCCCCCCN2CCN(c3nccs3)CC2)cc1"
  measurement unit: "µg/mL"
  TC0: 12.5
- compound: "Brc1ccc(OCCCCCN2CCN(c3nccs3)CC2)cc1"
  measurement unit: "µg/mL"
  TC0: 0.78
- compound: "COc1ccc(OCCCCCCN2CCN(c3nccs3)CC2)cc1.Cl"
  measurement unit: "µg/mL"
  TC0: 3.13
- compound: "NC(=O)c1ncn([C@@H]2O[C@H](CO)[C@@H](O)[C@H]2O)n1 [Con, ribavirin, reference compound]"
  measurement unit: "µg/mL"
  TC0: 500.0
- compound: "CCOc1ccc(OCCCCCCN2CCN(c3nccs3)CC2)cc1.Cl"
  measurement unit: "µg/mL"
  TC0: 3.13
- compound: "c1ccc(OCCCCCCN2CCN(c3nccs3)CC2)cc1"
  measurement unit: "µg/mL"
  TC0: 12.5
- compound: "CC(C)(C)c1ccc(OCCCCCCN2CCN(c3nccs3)CC2)cc1"
  measurement unit: "µg/mL"
  TC0: 3.13
- compound: "Cl.c1ccc(OCCCCCN2CCN(c3nccs3)CC2)cc1"
  measurement unit: "µg/mL"
  TC0: 12.5

Batch: TC0 for all items listed.
1. CCc1ccc(OCCCCCCN2CCN(c3nccs3)CC2)cc1
2. Fc1ccc(OCCCCCCN2CCN(c3nccs3)CC2)cc1
3. COc1ccc(OCCCCCN2CCN(c3nccs3)CC2)cc1
4. Fc1ccc(OCCCCCN2CCN(c3nccs3)CC2)cc1
5. CC(C)c1ccc(OCCCCCN2CCN(c3nccs3)CC2)cc1

3.13
12.5
50.0
12.5
3.13
